# measurement_target: GRID2IP_2, A4D2P6
# Sequence (A4D2P6 272-370): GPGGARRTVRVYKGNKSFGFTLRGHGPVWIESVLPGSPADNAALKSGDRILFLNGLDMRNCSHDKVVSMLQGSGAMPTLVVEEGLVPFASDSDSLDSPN
# experimental_protocol: holdup assay
# Parameters: key: below the threshold = too weak to quantify, mostly under pKd 3.1 to 4
# applied_conditions: plain residues with an end cap or a label only (N-terminal biotin on a linker: ahx)
measured_attribute: pKd

Solved entries (count: 4):
PSASCAVTAA [PDLIM4, P50479;P50479-2]	below the threshold
NRKREIFSNF [NHERF2, Q15599]	below the threshold
TVICWPGSLV [LNX2, Q8N448]	3.95
HNAFLSVTTV [PDZRN4, Q6ZMN7]	below the threshold

Request: Looking for the measured pKd of LSDPSVSTVV [GRIN1, Q05586;Q05586-2] , can you help?
Response: below the threshold
